The entries below are paired with their reported Activity.
Molecular target: Prostate-specific antigen (Homo sapiens) (UniProt P07288)
Sequence (P07288 whole entry): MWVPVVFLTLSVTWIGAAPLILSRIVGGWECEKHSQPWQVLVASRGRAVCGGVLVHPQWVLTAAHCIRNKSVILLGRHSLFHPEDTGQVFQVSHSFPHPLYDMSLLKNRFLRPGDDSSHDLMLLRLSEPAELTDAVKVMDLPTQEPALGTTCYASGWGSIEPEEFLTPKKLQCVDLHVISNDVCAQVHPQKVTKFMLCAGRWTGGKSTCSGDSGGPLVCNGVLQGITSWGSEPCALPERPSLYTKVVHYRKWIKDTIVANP
Assay: Stimulation of KLK3 (unknown origin) proteolytic activity using chromogenic chymotrypsin MeO-Suc-Arg-Pro-Tyr-pNA substrate at 20 ug/ml pre-incubated for 30 mins before addition of substrate by […] relative to untreated control
Bridge positions count the residues as written; N and C are the ends. Peptide text beside a SMILES is read from it.
Give the number; % is assumed, so skip it.

molecule="CC[C@H](C)[C@@H]1NC(=O)[C@@H]2CSSC[C@H](NC(=O)[C@H](C)NC(=O)[C@H](C)NC(=O)[C@H](C)NC1=O)C(=O)N[C@@H](Cc1c[nH]c3ccccc13)C(=O)N[C@@H]([C@@H](C)O)C(=O)N[C@H](C(N)=O)CSSC[C@H](N)C(=O)N[C@@H](C(C)C)C(=O)N[C@@H](C)C(=O)N[C@@H](Cc1ccc(O)cc1)C(=O)N2 (H-CVAYCIAAACWTC-NH2; disulfide 1-13, 5-10)" unit_descriptor=% reported=165
molecule="CC[C@H](C)[C@@H]1NC(=O)[C@@H]2CSSC[C@H](NC(=O)[C@H](C)NC(=O)[C@H](Cc3cnc[nH]3)NC(=O)[C@H](C)NC1=O)C(=O)N[C@@H](Cc1c[nH]c3ccccc13)C(=O)N[C@@H]([C@@H](C)O)C(=O)N[C@H](C(N)=O)CSSC[C@H](N)C(=O)N[C@@H](C(C)C)C(=O)N[C@@H](C)C(=O)N[C@@H](Cc1ccc(O)cc1)C(=O)N2 (H-CVAYCIAHACWTC-NH2; disulfide 1-13, 5-10)" unit_descriptor=% reported=239

The molecule CC(C)[C@@H]1NC(=O)[C@@H](N)CSSC[C@@H](C(N)=O)NC(=O)[C@H]([C@@H](C)O)NC(=O)[C@H](Cc2c[nH]c3ccccc23)NC(=O)[C@H](C)NC(=O)[C@@H]2CSSC[C@H](NC(=O)[C@H](C)NC(=O)[C@H](Cc3ccc(O)cc3)NC(=O)[C@H](C)NC1=O)C(=O)N[C@@H](CCC(=O)O)C(=O)N[C@@H](Cc1cnc[nH]1)C(=O)N2 (H-CVAYACEHCAWTC-NH2; disulfide 1-13, 6-9) showed Activity equal to 84

Data origin, for the record: ChEMBL document CHEMBL3132847
